target: PAF receptor (Homo sapiens); construct: determined using human thrombocytes; endogenous in cells; host or cells: human thrombocytes (platelets); experiment: 3H-PAF-receptor bonding on human thrombocytes (platelets); assay type: binding; details: method as in European Patent Application 368 175
Sequence (P25105 whole entry): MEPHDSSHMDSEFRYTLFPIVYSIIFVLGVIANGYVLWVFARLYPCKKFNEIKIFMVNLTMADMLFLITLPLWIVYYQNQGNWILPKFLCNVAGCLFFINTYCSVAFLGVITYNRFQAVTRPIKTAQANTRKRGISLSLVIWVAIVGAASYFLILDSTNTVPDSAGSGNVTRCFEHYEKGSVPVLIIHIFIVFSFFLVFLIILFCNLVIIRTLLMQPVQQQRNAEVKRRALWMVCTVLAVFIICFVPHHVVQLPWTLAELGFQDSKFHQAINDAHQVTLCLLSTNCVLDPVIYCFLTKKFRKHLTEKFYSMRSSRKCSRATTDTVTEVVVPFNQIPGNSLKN
Observable: pKi
Keep it numeric: pKi is minus log10 of the concentration in mol/L.

Input: What pKi value was documented for this compound, CCCN(Cc1ccc(C(F)(F)F)cc1)C(=O)[C@@H]1Cc2sc3c(c2C1)C(c1ccccc1Cl)=NCc1nnc(C)n1-3 [Example 18] ?
Output: 8.74
